System: progesterone receptor
Assay: Progesterone receptor assay: inhibition of [3H]R5020 binding, uterine cytosol
Set-up: species or system rat
Conditions: Table 4′; E^−6
readout.label: % Inhibition Progesterone Receptor E^−6
Quote the value and follow it with the unit of measurement.

Would you please look over these solved cases?
[
  {
    "compound": "COCCOc1cc2c(cc1C(F)(F)F)[C@H]1CC[C@@]3(C)[C@@H](CC[C@@]34CCC(C)(C)C(=O)O4)[C@@H]1CC2",
    "measured": "0%"
  },
  {
    "compound": "CC1(C)CCC2(CCC3C4CCc5cc(O)c([N+](=O)[O-])cc5C4CCC32C)OC1=O (centres unmarked)",
    "measured": "7%"
  },
  {
    "compound": "COCCOc1cc2c(cc1C#N)C1CC[C@@]3(C)C(CC[C@@]34CCC(C)(C)C(=O)O4)C1CC2 (some centres unmarked)",
    "measured": "0%"
  }
]

Dear colleague, I am looking for the recorded % Inhibition Progesterone Receptor E^−6 of the following compound: CSCCOc1ccc2c(c1)CCC1C2CCC2(C)C1CCC21CCCC(=O)O1 (centres unmarked)
0%

Now consider COCCOc1ccc2c(c1)CCC1C2CCC2(C)C1CCC21CCC(C)(C)C(=O)O1 (centres unmarked) and answer again.
3%

Now consider CC1(C)CCC2(CCC3C4CCc5cc(OS(C)(=O)=O)ccc5C4CCC32C)OC1=O (centres unmarked) and answer again.
2%

Now consider CCS(=O)(=O)Oc1ccc2c(c1)CCC1C2CCC2(C)C1CCC21CCC(C)(C)C(=O)O1 (centres unmarked) and answer again.
0%

Now consider COc1ccc2c(c1)C(=O)CC1C3CCC4(CCC(C)(C)C(=O)O4)C3(C)CCC21O (centres unmarked) and answer again.
0%

Now consider CC1(C)CC[C@@]2(CCC3C4CCc5cc(F)ccc5C4CC[C@@]32C)OC1=O (some centres unmarked) and answer again.
5%

Now consider COCCOc1cc2c(cc1C(=O)O)C1CCC3(C)C(CCC34CCC(C)(C)C(=O)O4)C1CC2 (centres unmarked) and answer again.
0%

Now consider CCOc1ccc2c(c1)CCC1C2CC[C@@]2(C)C1CC[C@@]21CCC(C)(C)C(=O)O1 (some centres unmarked) and answer again.
3%

Now consider CC1CCC2(CCC3C4CCc5cc(O)c([N+](=O)[O-])cc5C4CCC32C)OC1=O (centres unmarked) [EM-1126] and answer again.
14%

Now consider CC12CCC3c4ccc(F)cc4CCC3C1CCC21CCCC(=O)O1 (centres unmarked) and answer again.
24%

Now consider COc1ccc2c(c1)CCC1C2CCC2(C)C1CCC21CCC(C)(C)C(=O)O1 (centres unmarked) and answer again.
0%
